Let's look at some compounds and their measured pIC50.
- Test system: HL-60
- Measurement description: Cytotoxicity against human HL60 cells after 72 hrs by MTT assay
- Format: functional, cell-based
- Applied conditions: HL-60, 72 h
The scale used: pIC50 is minus the common logarithm of the concentration in molar units.

Worked cases, answers included:
Challenge: Please look at this compound and report its pIC50: "CC(C)=C1NC(=O)C(=C(C[C@@H](C[C@H](C)O)Nc2ccccc2)Nc2ccccc2)C1=O"
Response given: 5.11

Challenge: Please look at this compound and report its pIC50: "CO[C@H](CC(Nc1ccccc1)=C1C(=O)NC(=C(C)C)C1=O)C[C@H](C)O"
Response given: 5.55

Challenge: Please look at this compound and report its pIC50: "CC(C)=C1NC(=O)C(=C(C[C@H](C[C@H](C)O)Nc2ccccc2)Nc2ccccc2)C1=O"
Response given: 5.12

Read the next record carefully.
Challenge: Please look at this compound and report its pIC50: "CC(C)=C1NC(=O)C(=C2C=CC[C@H](C)O2)C1=O"
Response given: 5.18

---

- System: SH-SY5Y
- Measurement description: Cytotoxicity against human SH-SY5Y cells after 72 hrs by SRB assay
Recorded endpoint: IC50 (µM)
Use µM as the unit, but write only the number.

Challenge: Please look at this molecule and report its IC50: "CC(C)=C1NC(=O)C(=C2C=CC[C@H](C)O2)C1=O"
Response given: 15

Read the next record carefully.
Challenge: Please look at this molecule and report its IC50: "CO[C@H](CC(Nc1ccccc1)=C1C(=O)NC(=C(C)C)C1=O)C[C@H](C)O"
Response given: 12

---

- Tested on: PC-3
- Measurement description: Cytotoxicity against human PC3 cells after 72 hrs by SRB assay
- Applied conditions: PC-3, 72 h
Structures can show the parent of a compound that is named as a salt.
Let's look at some molecules and their measured pIC50.
The scale used: pIC50 is minus the common logarithm of the concentration in molar units.

Worked cases, answers included:
Challenge: Please look at this molecule and report its pIC50: COc1cccc2c1C(=O)c1c(O)c3c(c(O)c1C2=O)C[C@@](O)(C(=O)CO)C[C@@H]3O[C@H]1C[C@H](N)[C@H](O)[C@H](C)O1 [DOXORUBICIN HYDROCHLORIDE]
Response given: 6.00

Challenge: Please look at this molecule and report its pIC50: "CC(C)=C1NC(=O)C(=C2C=CC[C@H](C)O2)C1=O"
Response given: 4.96

Challenge: Please look at this molecule and report its pIC50: "CC(C)=C1NC(=O)C(=C(C[C@H](C[C@H](C)O)Nc2ccccc2)Nc2ccccc2)C1=O"
Response given: 4.74

Read the next record carefully.
Challenge: Please look at this molecule and report its pIC50: "CO[C@H](CC(Nc1ccccc1)=C1C(=O)NC(=C(C)C)C1=O)C[C@H](C)O"
Response given: 4.89

---

Let's look at some compounds and their measured IC50.
- System: SH-SY5Y
- Measurement description: Cytotoxicity against human SH-SY5Y cells after 72 hrs by SRB assay

Worked cases, answers included:
Challenge: Please look at this compound and report its IC50: "CO[C@@H](CC(Nc1ccccc1)=C1C(=O)NC(=C(C)C)C1=O)C[C@H](C)O"
Response given: > 30 µM

Challenge: Please look at this compound and report its IC50: "CC(C)=C1NC(=O)C(=C(C[C@@H](C[C@H](C)O)Nc2ccccc2)Nc2ccccc2)C1=O"
Response given: > 30 µM

Read the next record carefully.
Challenge: Please look at this compound and report its IC50: "CC(C)=C1NC(=O)C(=C(C[C@H](C[C@H](C)O)Nc2ccccc2)Nc2ccccc2)C1=O"
Response given: > 30 µM

Cited source: ChEMBL document CHEMBL4145647
